System: PC-3 cells
assayNotes: modified MTT method, proliferation of PC-3 cells
Assay type: cell-based
runConditions: Homo sapiens, PC-3, 72 h, Batch 1, 72 h; read-out: IC50 on the growth of PC-3 cells
Description: […] Influence of the five test samples on the proliferation of 7 human tumor cell lines was determined via a modified MTT method. […] The inhibition rate was calculated by using Microsoft Excel 2003, and median inhibitory concentration IC50 was calculated with a LOGIT method, which was used as an indicator for judging the inhibitory capability.
pIC50: −log10 of the molar value.
experimentalEndpoint: pIC50

Consider the reported pIC50 for these molecules:
>>> print(df.to_string())
                                   molecule  reading
0  C[C@@H]1CC[C@H]2[C@@H](C)C(=O)O[C@@H]3O[C@@]4(C)CC[C@@H]1[C@]32OO4   < 3.00
1  CO[C@H]1O[C@@H]2O[C@@]3(C)CC[C@H]4[C@H](C)CC[C@@H]([C@H]1C)[C@@]24OO3   < 3.00

# ---- query molecule ----
Input line: I would be grateful if you could share the reported pIC50 for C[C@H]1[C@H](OC(=O)CCC(=O)O)O[C@@H]2O[C@@]3(C)CC[C@H]4[C@H](C)CC[C@@H]1[C@@]24OO3 [artesunate] .
Output line: < 3.00
